# Tested on: HCV replicon
# assayOverview: HCV replicon FRET assay
# Assay type: cell-based
# assayContext: Hepatitis C virus
experimentalEndpoint: EC50

Please report the recorded EC50 for COc1ccc2c(c1)C=C(C(=O)N1CCOCC1)Cn1c-2c(C2CCCCC2)c2ccc(C(=O)NS(=O)(=O)N(C)C)cc21 .
10 to 1000 nM

---

# targetOrSystem: HCV NS5B RdRp genotype 1b (Hepatitis C virus genotype 1b)
# Construct: The protein was expressed with an 18 amino acid C-terminal truncation to enhance the solubility; made in house; host or cells: E. coli BL21 (DE3), pET21a
# Sequence (Q9WMX2 2420-2992): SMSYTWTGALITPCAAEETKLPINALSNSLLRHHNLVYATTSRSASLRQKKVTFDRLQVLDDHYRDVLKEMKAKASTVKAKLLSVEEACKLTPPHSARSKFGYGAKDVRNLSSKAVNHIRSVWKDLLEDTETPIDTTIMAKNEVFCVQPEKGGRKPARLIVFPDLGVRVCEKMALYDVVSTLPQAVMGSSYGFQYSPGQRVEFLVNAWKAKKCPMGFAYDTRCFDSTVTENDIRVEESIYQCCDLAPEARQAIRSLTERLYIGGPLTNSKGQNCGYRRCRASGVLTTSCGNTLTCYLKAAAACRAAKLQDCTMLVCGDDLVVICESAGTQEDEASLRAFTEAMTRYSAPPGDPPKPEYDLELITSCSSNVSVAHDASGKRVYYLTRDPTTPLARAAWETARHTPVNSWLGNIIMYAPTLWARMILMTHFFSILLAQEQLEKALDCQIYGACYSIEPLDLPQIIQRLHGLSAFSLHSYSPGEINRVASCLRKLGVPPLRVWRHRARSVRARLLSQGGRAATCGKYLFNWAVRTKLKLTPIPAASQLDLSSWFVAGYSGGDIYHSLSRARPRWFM
# assayOverview: Modified HCV NS5B RdRp enzyme assay (with preincubation)
# Assay type: biochemical
# assayContext: modified method (with preincubation)
pIC50: −log10 of the molar value.
experimentalEndpoint: pIC50

I am curious: what pIC50 value has been reported for COC(=O)/C=C/c1ccc(NC(=O)C2(NC(=O)c3ccc4c(C5CCCCC5)c5n(c4c3)C[C@@H](O)[C@@H](O)c3ccccc3-5)CCCC2)cc1 ?
6.00 to 7.70

Field request: pIC50 | item: COC(=O)/C=C/c1ccc(NC(=O)C2(NC(=O)c3ccc4c(C5CCCCC5)c5n(c4c3)CC(=O)Nc3cccnc3-5)CCCC2)cc1 [drawing 159]
6.00 to 7.70
